- EXPERIMENT_NOTES: A CellTox Green Cytotoxicity Assay to monitor cytotoxicity in HEK293 cells - 32 hour (AID 1224881); also: nearly all actives have a fitted effect of over 40% in size
- ASSAY_SETUP: CellTox Green fluorescence; series mostly up to 76.8 µM
Records with an inconclusive call do not appear. The source made the active and inactive calls. Calls follow the shape of the dose curve; as a rule, active = well fitted activation curve with a large enough effect in the repeat runs; inconclusive = weak or mixed curves; inactive = flat fitted curve, though single readings scatter.
REPORTED_ENDPOINT: cytotoxicity increase

These recorded examples may help you get a feel for the data.
>  <SMILES>
O=C(O)c1ccc(OCCN2CCCCC2)cc1

>  <REPORTED_ENDPOINT>
cytotoxicity increase

>  <OBS_VALUE>
inactive

$$$$
>  <SMILES>
CC(=O)N1CCN(c2ccc(O)cc2)CC1

>  <REPORTED_ENDPOINT>
cytotoxicity increase

>  <OBS_VALUE>
inactive

$$$$
>  <SMILES>
COc1ccc(OC)c(NC(=O)CC(C)=O)c1

>  <REPORTED_ENDPOINT>
cytotoxicity increase

>  <OBS_VALUE>
inactive

$$$$
>  <SMILES>
Cc1nc(C)nc(N2C[C@@H](C)N(c3ccnc([C@@H](C)O)n3)[C@@H](C)C2)n1

>  <REPORTED_ENDPOINT>
cytotoxicity increase

>  <OBS_VALUE>
inactive

$$$$
>  <SMILES>
NC(=O)NNC(N)=O

>  <REPORTED_ENDPOINT>
cytotoxicity increase

>  <OBS_VALUE>
inactive

$$$$
>  <SMILES>
Cc1cccc(Nc2ccncc2S(=O)(=O)NC(=O)NC(C)C)c1

>  <REPORTED_ENDPOINT>
cytotoxicity increase

>  <OBS_VALUE>
inactive

$$$$

Note to self: cytotoxicity increase recorded for OCCCCCCCl was inactive
